B1: GAGE1 (parent)
chain: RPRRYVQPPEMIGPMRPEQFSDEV

# Variants of: B1
# assay_protocol: protein stability index of a GFP-peptide fusion (GPS, HEK-293T) (PSI 1-6); higher = more stable;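 note: lentivirally expressed fusions sorted by FACS into six bins by GFP to DsRed ratio, PSI derived from sequencing read proportions per bin multiplied by bin number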
# conditions: c terminus: a fixed tail appended
I would appreciate it if you labelled entries 1 when protein stability index is 4 or higher, otherwise -1.

P17C :: -1

Q: I'd appreciate it if you could say whether `G13Q` has protein stability index at least equal to 4.
Result: 1

Q: I'd appreciate it if you could say whether `P14R` has protein stability index at least equal to 4.
Result: 1

Q: I'd appreciate it if you could say whether `R4Y` has protein stability index at least equal to 4.
Result: -1

Q: I'd appreciate it if you could say whether `Q19A` has protein stability index at least equal to 4.
Result: -1
